molecular target: hemoglobin (Hb) (Homo sapiens, UniProt P68871+P69905); test: Surface plasmon resonance (SPR) interaction between β-elemene and hemoglobin; settings: Hb coupled on chip, BE 0.78-100.00 μM, FIGS. 8-9
Sequence (P69905 2-142 limits assumed): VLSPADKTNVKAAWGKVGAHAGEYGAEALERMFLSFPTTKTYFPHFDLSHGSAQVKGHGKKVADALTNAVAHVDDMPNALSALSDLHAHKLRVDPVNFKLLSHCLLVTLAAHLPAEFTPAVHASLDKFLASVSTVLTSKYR
Sequence (P68871 2-147 limits assumed): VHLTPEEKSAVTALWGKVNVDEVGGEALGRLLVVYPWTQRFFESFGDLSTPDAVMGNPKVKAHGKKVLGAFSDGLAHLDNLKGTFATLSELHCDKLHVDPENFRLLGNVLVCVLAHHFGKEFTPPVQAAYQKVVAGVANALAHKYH
ASSAY ENDPOINT: Kd
Report as: number unit

Fill in Kd for record C=C[C@]1(C)CC[C@@H](C(=C)C)C[C@H]1C(=C)C
5.84 µM
